Provenance of the data: the supplement of paper PMC7394473

- Tested on: U2OS
- protocol-details: normalized growth rate inhibition value (GR) relative to untreated cells (GR value (dimensionless, 1 = untreated growth)); higher = less growth inhibition
- test-conditions: 0.0100289 µM; 72 h
measured-property: normalized growth rate inhibition value

>>> result_value("CC(=O)Nc1cccc(-n2c(=O)n(C3CC3)c(=O)c3c(Nc4ccc(I)cc4F)n(C)c(=O)c(C)c32)c1 [Trametinib]")
0.582
>>> result_value("CC(=O)c1c(C)c2cnc(Nc3ccc(N4CCNCC4)cn3)nc2n(C2CCCC2)c1=O [Palbociclib]")
0.841
>>> result_value("CC[C@@H]1C(=O)N(C)c2cnc(Nc3ccc(C(=O)N[C@H]4CC[C@H](N5CCN(CC6CC6)CC5)CC4)cc3OC)nc2N1C(C)C [Volasertib]")
0.717
>>> result_value("CCNC(=O)c1noc(-c2cc(C(C)C)c(O)cc2O)c1-c1ccc(CN2CCOCC2)cc1 [Luminespib]")
-0.00384
